experiment: yeast display, Sf9 membrane polyspecificity reagent, FACS + sequencing; frameworks hold sequencing errors
PROPERTY_NAME: polyreactivity (PSR sort gate)

SEQ_STRING: QVQLVESGGGLVQAGGSLRLSCAASGRSFTYYAMGWYRQAPGKERELVATISGSGGSTYYADSVKGRFTISRDNAKNTVYLQMNSLKPEDTAVYYCAATGFIFRGRVRAIPRRYNYWGQGTQVTVSS
polyreactivity (PSR sort gate): high polyreactivity
--
SEQ_STRING: QVQLVDSGGGLVQAGGSLRLSCAASGITFRRYAMGWYRQAPGKERELVASITRNGGITYYADSVKGRFTISRDNAKNTVYLQMNSLKPEDTAVYYCNAVFYYPYPADRRDYWGQGTQVTVSS
polyreactivity (PSR sort gate): high polyreactivity
--
SEQ_STRING: QVQLVESGGGLVQAGGSLRLSCAASGLTFWKYTMGWYRQAPGKERELVAAISISGTNTYYADSVKGRFTISRDNAKNTVYLQMNSLKPEDTAVYYCAAVRGYPPTNYYYWGQGTQVTVSS
polyreactivity (PSR sort gate): high polyreactivity
--
SEQ_STRING: QVQLQESGGGLVQAGGSLLLSCAASGTICDSGLMGWYRQAPGKERELVDVISSGGITNYADSVKGRYTISRDNAKNTVYMQMNSLKPEDTAVYWGQGPQVTVSS
polyreactivity (PSR sort gate): low polyreactivity
--
SEQ_STRING: QVQLQESGGGLVQAGGSLRLSSAASGTITVLYKMGWFRQPPGKQREFVASINYGTSTYYADSVKGRFTVSRDSAKKTVSLQMNSLKPEDTAVYYCAAAYRWQDVYRYWGQGTQVTVSS
polyreactivity (PSR sort gate): low polyreactivity

# polyreactivity (PSR sort gate) (sequence: QVQLVESGGGLVQAGGSLRLSCAASGLIFQVYDMGWYRQAPGKERELVAAISSGSNTNYADSVKGRFTISRDNAKNTVYLQMNSLKPEDTAVYYCAAGLYLQGPFDYWGQGTQVTVSS ) is low polyreactivity

# polyreactivity (PSR sort gate) (sequence: QVQLVESGGGLVQAGGSLRLSCAASGFTVGYYAMAWYRQAPGKERELVAAISYVGGTTYYADSVKGRFTISRDNAKKTVYLQMNSLKPEDTAVYYCATLYRGSVRYYYWGQGTQVTVSS ) is high polyreactivity

# polyreactivity (PSR sort gate) (sequence: QVQLVESGGGLVQAGGSLRLSCAASGSTFPGNAMGWYRQAPGKERELVAAITSTGTTYYADSVKGRFTISRDNAKNTVYLQMNSLKPEDTAVYYCNADPSPDPSTFDYWGQGTQVTVSS ) is low polyreactivity

# polyreactivity (PSR sort gate) (sequence: QVQLVESGGGLVQAGGSLRLSCAASGRTFVYTMGWYRQAPGKERELVAAIRYSGGRTYYADSVKGRFTISRDNAKNTVYLQMNSLKPEDTAVYYCAARNYATGVRYDYWGQGTQVTVSS ) is high polyreactivity

# polyreactivity (PSR sort gate) (sequence: QVQLVESGGGLVQAGGSLRLSCAASGFTFKKNAMGWYRQAPGKERELVDAISISGGSTYYADSVKGRFTISRDNAKNTVYLQMNSLKPEDTAVYYCAAVYISRNFFGRARGDYWGQGTQVTVSS ) is low polyreactivity

# polyreactivity (PSR sort gate) (sequence: QVQLVESGGGLDQAGGSLRLSCAASGSIFRPYTMGWYRQAPGKERELVAAITGTCGSTRYADSVKGRFTISRDNAKNTVYLQMNSLNPEDNAVYYCAVYPPYRGRYDYRKYDSWGQGTQVTVSS ) is low polyreactivity

---

assay: yeast display, Sf9 membrane polyspecificity reagent, FACS + sequencing; frameworks hold sequencing errors
PROPERTY_NAME: polyreactivity (PSR sort gate)

Solved cases below.
SEQ_STRING: QVQLVESGGGLVQAGGSLRLSCAASGLIFLQYVMGWYRQAPGKEREFVATITDDGDTTYYADSVKGRFTISRDNAKNTVYLQMNSLKPEDTAVYYCAARYVPVYYWDYPYDYWGQGTQVTVSS
PROPERTY_NAME: polyreactivity (PSR sort gate)
MEASURED_VALUE: low polyreactivity
--
SEQ_STRING: QVQLVESGGGLVQAGGSLRLSCAASGLNFTYNAMGWSRQAPGKESELVAAITRSGGSTYYADSVKGRFTISRDNAKNTVYLQMNSLKPEDTAVYYCAKDDSAYSKYGYWGQGTQVTVSS
PROPERTY_NAME: polyreactivity (PSR sort gate)
MEASURED_VALUE: low polyreactivity
--
SEQ_STRING: QVQLVESGGGIVQAGGSLRLRCAASGFTFSRNAMVWYRQAPGKERELVAAITWSGGRTYYADSVKGRFTISRDNAKNTVYLQMNSLKPEDTAVYYCAARKYHLRSAYDYWGQGTKVTVSS
PROPERTY_NAME: polyreactivity (PSR sort gate)
MEASURED_VALUE: low polyreactivity
--
SEQ_STRING: QVQLVESGGGLVQAGGSRRLRCAASGSTFDVYAMGWYRQAPGKESELVAVINTSGTRTYYADSVKGRFTISRDNAKNTVYLQMNSLKPEDTAVYSCNAGGHLEMNYWGQGTQVTVSS
PROPERTY_NAME: polyreactivity (PSR sort gate)
MEASURED_VALUE: low polyreactivity
--
SEQ_STRING: QVQLVESGVGLVQAGGSLRLSCAASGLILYTYAMGWYRQAPGKESELVAAINSGGRTNYADSVKGRFTISRDNAKNSVYLQMNSLKPEDTAVYYCAADYGSRVRGFNYWGQGTQVTVSS
PROPERTY_NAME: polyreactivity (PSR sort gate)
MEASURED_VALUE: low polyreactivity
--
SEQ_STRING: QVQLVESGGGLVQGGGSLRLSCAASGSIFSDNAMGWYRQAPGKERELVATITFSGASTYYADSVKGRFTISRDNAKNTVYLKMNSLKPEDTAVYYCAAEEPDVIAQPGFDYWGQGTQVTVSS
PROPERTY_NAME: polyreactivity (PSR sort gate)
MEASURED_VALUE: low polyreactivity
--
SEQ_STRING: QVQLVESGGGLVQAGGSLRLSCAASGRTFYYYALGWYRQAPGKERELVAVIRSSGDSTYYADSVKGRFTISRDNANNTVYLQMNSLKPEDTAVYYCNADPGEVLVGYDYWGQGTQVTVSS
PROPERTY_NAME: polyreactivity (PSR sort gate)
MEASURED_VALUE: low polyreactivity
--
SEQ_STRING: QDQLVESGGGLVQAGGSLRLSCAASGLNFVRYAMGWYRQAPGKERELVATITWSGGTYYADSVKGRFTISRDNAKNTVYLQMNSLKPEDTAVSYCAADTPTPGLFYWFYPHRGYWGQGTQVTVSS
PROPERTY_NAME: polyreactivity (PSR sort gate)
MEASURED_VALUE: low polyreactivity
--
SEQ_STRING: QVQLVESGGGLVQAGGSLRLSCAASGIIFLLYSMGWYRQAPGKERELVAAITNGGRTNYADSVKGRFTISRDNAKNTVYLQMNSLKPEDTAVYYCNAVLSVPDYTLFDYWGQGTQVTVSS
PROPERTY_NAME: polyreactivity (PSR sort gate)
MEASURED_VALUE: low polyreactivity
--
SEQ_STRING: QVQLVESGGVLVQAGGSLRLSCAASGRIFRSYALGWYRQAPGKETEFVAAISSGGSTNYADSVKGRFTISRDNAKNTVYLQMNSLKREDTAVYYCAADLWAYTWYWHSDYWGQGTQVTVSS
PROPERTY_NAME: polyreactivity (PSR sort gate)
MEASURED_VALUE: low polyreactivity

# polyreactivity (PSR sort gate) (sequence: QVQLVQSGGGLVQAGGSLRLSCAASGRTIWANAMGWYRQAPGKESELVAAITTSGGSTNYADSVKGRFTISRDNAKNTVYLQMNSLKPEDTAVYYCNADPTYHVVNGVGYWGQGTQVTVSS ) is low polyreactivity

# polyreactivity (PSR sort gate) (sequence: QVQLVESGGGLVQAGGSLRLSCAASGSTFDSYAMGWYRQDPGKERELFAAITYSGGRTYYADSVKGRFTISRDNAKNTVYLQMNSLKPEDTAVYYCAATGVFRDEYWGQGTQVTVSS ) is low polyreactivity

# polyreactivity (PSR sort gate) (sequence: QVQLVESGGALVQAGGSLRLSCAASGITFKPYGMGRYRQAPGKETELVADITSGGITYYADSVKGRFTISRDNAKNTVYLQMNSLKPEDTDVYYCAAVGGRSSYRLDYWGQGTQVTVSS ) is low polyreactivity

---

assay: yeast display, Sf9 membrane polyspecificity reagent, FACS + sequencing; frameworks hold sequencing errors
PROPERTY_NAME: polyreactivity (PSR sort gate)

Solved cases below.
SEQ_STRING: QVQLVETGGGLVQAGGSLRLSCAASGSIFPSYAMGWYRPAPAKERELVAAISRSAGSTYYADSVKGRFTISRDNSKNTVYLQMNSLKPEDTAVYYCADDGYSSRYRYDYWGQGTQVTVSS
polyreactivity (PSR sort gate): low polyreactivity
--
SEQ_STRING: QVQLVESVGVLVQEGGSLRLSSAASGGSLPRYAMGWYRQAPGKEMELVAVITRGGSTYYADSVKGRFTISRDNAKNTVYLQMIRLIPEDTAVYYFAKYRYQTGIFYYWGQGTQVTVSS
polyreactivity (PSR sort gate): high polyreactivity
--
SEQ_STRING: QVQLVESAGGLVQAGGSLRLICAATGRIYEIYAMGWYRQAPGTERELVATIDSGGSTNYADSVKGRFTISRDNAKNTVYLQMNSLQPEDTAVYYCAGGNPFYDSIGYDYWGQGTQVTVSS
polyreactivity (PSR sort gate): low polyreactivity
--
SEQ_STRING: QVQLVESGGGLVQAGGSLRLSSAASGRTFYYYAMGWYRQAPGKERELVAAITSRGTSTYYADSVKGRFTISRDNAKNTVYLQMNSLKPEDTAVFYCAAGFICYYGNGYDYWGQGTQVTVSS
polyreactivity (PSR sort gate): high polyreactivity
--
SEQ_STRING: QVQLVESGGGLVQAGGSLRLSCAASGFIFSNNAMGWYRQAPGKERELVAVINGGGSTYYADSVKGRFTISRDNAKNTVYLQMNSLKPEDTAFYYCARKSWPKERRVDPGYDYWGQGTQVTVSS
polyreactivity (PSR sort gate): low polyreactivity
--
SEQ_STRING: QVQLVESGGGLVQAGGSLRLSCASSGRNFTRNTMGWYRQAPGKERELVAAISGRGGSTYYADSVKGRFTISRDNAMKTVYLQMNSLKPEDTAVDYCAADGVYRGGYDYWGQGTQVTVSS
polyreactivity (PSR sort gate): high polyreactivity
--
SEQ_STRING: QVQLVESGGGLVQAGGSLRLICAASGFIFKGYAMGWNRQAPGKERELVAAISSSGTSTYYADSVKGRFTISRDNAKNTVYLQMNSLKPEDTAVYYCAADLASYAYRYDFWGQGTQVTVSS
polyreactivity (PSR sort gate): high polyreactivity
--
SEQ_STRING: QVQLVESGGGLVQAGGSLRLSCSASGRISVFNVMGWYRQAPGKERELVAAITSGGSTIYADSVKGRFTISRDNAKNTVYLQMNSLKPEDTAVYYCAALYQFHGKIWDGDYWGQGTQVTVSS
polyreactivity (PSR sort gate): low polyreactivity

# polyreactivity (PSR sort gate) (sequence: QVQLVESGGCLVQAGGSLRLICAASGSTFLLNAMGWYRQAPGKVRELVAAITSSGRTNYADSVKGRFTISRDNAKNTVYLQMNSLKPEDTAVYYCNTRYSPGYQGTDVDYWRQGTQVTVSS ) is low polyreactivity

# polyreactivity (PSR sort gate) (sequence: QVQLVESGGGLVQAGGSLPLSCAASGFISWGNAMGWSRQAPGKARELVAAISWRDARTYYADSVKGRFTISRDNAKNTVYLQMNSLKPEATAVYYCNAVTAYVSRNLGGYRWFDYWGQGTQVTVSA ) is low polyreactivity

# polyreactivity (PSR sort gate) (sequence: QVQLVESGGGLVQAGGSLRLSCAASGFIFWRYTMGWYRQAPGKERELVAVISWRGDNTYADSVEGRFTISRDNAKNTVYLQMNSLKPEDTAVYYCGVYRYDYWGQGTQVTVSS ) is low polyreactivity
